- target.under.test: KRAS G12V (Homo sapiens (Human), UniProt P01116, G12V)
- Sequence (P01116-2 other isoform, or with tags, fused parts or gaps G12V): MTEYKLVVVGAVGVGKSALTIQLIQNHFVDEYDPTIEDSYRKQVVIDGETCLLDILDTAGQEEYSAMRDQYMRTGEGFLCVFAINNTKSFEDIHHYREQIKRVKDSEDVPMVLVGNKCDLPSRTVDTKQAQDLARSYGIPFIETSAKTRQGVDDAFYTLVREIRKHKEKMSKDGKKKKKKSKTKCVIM
- assay.details: KRAS G12V degradation in SW620 cells (Western blot, DC50)
- Assay type: cell-based
- applied.conditions: 24 hours
- Experimental: SW620 (KRAS G12V homozygous), AsPC1 (KRAS G12D homozygous), MIA PaCa2 (KRAS G12C homozygous), A549 (KRAS G12S homozygous) and MCF7 (KRAS WT) cells were obtained from American Type Culture Collection (ATCC). […] The signal intensity of target proteins was calculated using ImageStudio software. […] Relative KRAS expression level was determined by the following formula: […] The percentage of KRAS expression was calculated using Microsoft Excel. […]
Listing of entries alongside the reported DC50.

CCc1cccc2cc(O)cc(-c3ncc4c(N5CCC[C@@](C)(O)C5)nc(OCC5(CN6CCC(F)(CN7CCN(c8ccc9c(c8)CN([C@H]8CCC(=O)NC8=O)C9=O)CC7)CC6)CC5)nc4c3F)c12 | < 1 nM
CCc1c(F)ccc2cc(O)cc(-c3ncc4c(N5CCC[C@@](C)(O)C5)nc(OCC5(CN6CCC(C)(CN7CCN(c8cc(F)c(C9CCC(=O)NC9=O)c(F)c8)CC7)CC6)CC5)nc4c3F)c12 (stereo partly shown) | 1 to 10 nM
CCc1c(F)ccc2cc(O)cc(-c3ncc4c(N5C[C@@H]6C[C@H](C5)[C@H](O)C6)nc(OCC5(CN6CCC(CN7CCN(c8ccc9c(c8)CN([C@H]8CCC(=O)NC8=O)C9=O)CC7)CC6)CC5)nc4c3F)c12 (stereo in doubt) | < 1 nM

With those in mind, consider the next compound.
input: Please give the measured DC50 for this compound: `CCc1c(F)ccc2cc(O)cc(-c3ncc4c(N5CCC[C@@](C)(O)C5)nc(OCC5(CN6CC(F)(CN7CC8(CCN(c9ccc%10c(c9)CN([C@H]9CCC(=O)NC9=O)C%10=O)CC8)C7)C6)CC5)nc4c3F)c12`
output: 1 to 10 nM

###

- target.under.test: KRAS-G12V/RAF1 (Homo sapiens (Human), UniProt P01116, G12V)
- Sequence (P01116-2 other isoform, or with tags, fused parts or gaps G12V): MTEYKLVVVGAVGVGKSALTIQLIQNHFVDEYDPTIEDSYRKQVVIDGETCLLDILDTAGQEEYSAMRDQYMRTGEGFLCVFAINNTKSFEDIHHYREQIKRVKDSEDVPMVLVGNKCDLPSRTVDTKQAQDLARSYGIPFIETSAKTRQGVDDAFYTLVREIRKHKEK
- assay.details: KRAS/RAF1 binding inhibition assay (AlphaScreen)
pIC50: −log10 of the molar value.
reported.endpoint: pIC50

Illustrative cases are given below, each with its answer.
CCc1c(F)ccc2cc(O)cc(-c3ncc4c(N5CCOC[C@@](C)(O)C5)nc(OCC5(CN6CCC(CN7CCN(c8ccc9c(c8)CN([C@H]8CCC(=O)NC8=O)C9=O)CC7)CC6)CC5)nc4c3F)c12 | 6.70 to 7.70
CCc1c(F)ccc2cc(O)cc(-c3ncc4c(N5CCC[C@@](C)(O)C5)nc(OCC5(CN6CCC(CN7CCN(c8ccc9c(c8)CN([C@H]8CCC(=O)NC8=O)C9=O)CC7)(OC)CC6)CC5)nc4c3F)c12 | > 7.70
CCc1c(F)ccc2cc(O)cc(-c3ncc4c(N5CCC[C@@](C)(O)C5)nc(OCC5(CN6CCC(C#N)(CN7CCN(c8ccc9c(c8)CN([C@H]8CCC(=O)NC8=O)C9=O)CC7)CC6)CC5)nc4c3F)c12 | < 6.70

input: Could you share which pIC50 value was measured for `CCc1cccc2cc(O)cc(-c3ncc4c(N5CCC[C@@](C)(O)C5)nc(OCC5(CN6CCC7(CC6)CC(CN6CCN(c8ccc9c(c8)CN([C@H]8CCC(=O)NC8=O)C9=O)CC6)C7)CC5)nc4c3F)c12` ?
output: 6.70 to 7.70

input: Query (compound): `C#Cc1c(F)ccc2cc(N)cc(-c3ncc4c(N5CCC[C@@](C)(O)C5)nc(OCC5(CN6CCC7(CC6)CC(CN6CCN(c8ccc9c(c8)CN([C@H]8CCC(=O)NC8=O)C9=O)CC6)C7)CC5)nc4c3F)c12` ; field requested: pIC50
output: < 6.70

###

Listed compounds paired with reported DC50
- target.under.test: KRAS G12V (Homo sapiens (Human), UniProt P01116, G12V)
- assay.details: KRAS G12V degradation in SW620 cells (Western blot, DC50)
- Type: cell-based
- applied.conditions: 24 hours
- Method: SW620 (KRAS G12V homozygous), AsPC1 (KRAS G12D homozygous), MIA PaCa2 (KRAS G12C homozygous), A549 (KRAS G12S homozygous) and MCF7 (KRAS WT) cells were obtained from American Type Culture Collection (ATCC). […] The signal intensity of target proteins was calculated using ImageStudio software. […] Relative KRAS expression level was determined by the following formula: […] The percentage of KRAS expression was calculated using Microsoft Excel. […]

CCc1c(F)ccc2cc(O)cc(-c3ncc4c(N5CCC[C@@](C)(O)C5)nc(OCC5(CN6CCC7(CC6)CC(C6CCN(c8ccc9c(c8)CN(C8CCC(=O)NC8=O)C9=O)CC6)C7)CC5)nc4c3F)c12 (stereo partly drawn) [Compound 186] | < 1 nM
CCc1c(F)ccc2cc(O)cc(-c3ncc4c(N5CCCn6nc(C(=O)N(C)C)c(Cl)c6C5)nc(OCC5(CN6CCC(CN7CCN(c8ccc9c(c8)CN([C@H]8CCC(=O)NC8=O)C9=O)CC7)CC6)CC5)nc4c3F)c12 [Compound 108] | 1 to 10 nM
CCc1c(F)ccc2cc(O)cc(-c3ncc4c(N5CCC[C@@](C)(O)C5)nc(OCC5(CN6CCC(N7CCC8(CC7)CN(c7ccc9c(c7)CN(C7CCC(=O)NC7=O)C9=O)C8)CC6)CC5)nc4c3F)c12 (stereo partly drawn) [Compound 151] | < 1 nM

input: Which DC50 is reported for this compound? CCc1c(F)ccc2cc(O)cc(-c3ncc4c(N5CCC(O)CC5)nc(OCC5(CN6CCC7(CC6)CC(CN6CCN(c8ccc9c(c8)CN([C@H]8CCC(=O)NC8=O)C9=O)CC6)C7)CC5)nc4c3F)c12 [Compound 114]
output: > 100 nM

input: Given the entry CCc1cccc2cc(O)cc(-c3ncc4c(N5CCC[C@@](C)(O)C5)nc(OCC5(CN6CCC(CN7CCN(c8ccc9c(c8)CN([C@H]8CCC(=O)NC8=O)C9=O)CC7)CC6)CC5)nc4c3F)c12 [Compound 6] , report its measured DC50.
output: < 1 nM

input: Would you mind telling me what DC50 value was observed for CCc1cccc2cc(O)cc(-c3ncc4c(N5CCC[C@@](C)(O)C5)nc(OCC5(CN6CCC(F)(CN7CC8(CCN(c9ccc%10c(c9)CN(C9CCC(=O)NC9=O)C%10=O)CC8)C7)CC6)CC5)nc4c3F)c12 (stereo partly drawn) [Compound 28] ?
output: < 1 nM

input: Look up DC50 for this compound: CCc1c(F)ccc2cc(O)cc(-c3ncc4c(N5CCC(O)CC5)nc(OCC5(CN6CCC(CN7CCN(c8ccc9c(c8)CN([C@H]8CCC(=O)NC8=O)C9=O)CC7)CC6)CC5)nc4c3F)c12 [Compound 115]
output: > 100 nM

input: Returns the measured DC50 for the input compound. Input: CCc1cccc2cc(O)cc(-c3ncc4c(N5CCC[C@@](C)(O)C5)nc(OCC5(CN6CCC7(CC6)CC(N6CCN(c8ccc9c(c8)C(=O)N(C8CCC(=O)NC8=O)C9=O)CC6)C7)CC5)nc4c3F)c12 (stereo partly drawn) [Compound 31]
output: 1 to 10 nM

input: Given CCc1c(F)ccc2cc(O)cc(-c3ncc4c(N5CCCC6(CCO6)C5)nc(OCC5(CN6CCC(F)(CN7CCN(c8ccc9c(c8)CN([C@H]8CCC(=O)NC8=O)C9=O)CC7)CC6)CC5)nc4c3F)c12 (stereo partly drawn) [Compound 41] , state its recorded DC50.
output: 1 to 10 nM

###

- target.under.test: KRAS-G12V/RAF1 (Homo sapiens (Human), UniProt P01116, G12V)
- assay.details: KRAS/RAF1 binding inhibition assay (AlphaScreen)
pIC50: −log10 of the molar value.
Listing of recorded pIC50 by entry.

CCc1c(F)ccc2cc(O)cc(-c3ncc4c(N5CCC[C@@](C)(O)C5)nc(OCC5(CN6CCC7(CC6)CN(C6CCN(c8ccc9c(c8)CN(C8CCC(=O)NC8=O)C9=O)CC6)C7)CC5)nc4c3F)c12 (some centres unmarked) | > 7.70
CCc1cccc2cc(O)cc(-c3ncc4c(N5CCOC[C@](C)(O)C5)nc(OCC5(CN6CCC7(CC6)CC(CN6CCN(c8ccc9c(c8)CN([C@H]8CCC(=O)NC8=O)C9=O)CC6)C7)CC5)nc4c3F)c12 | < 6.70
CCc1c(F)ccc2cc(O)cc(-c3ncc4c(N5CCC[C@@](C)(O)C5)nc(OCC5(CN6CC7(CCN(C8CCN(c9ccc%10c(c9)CN(C9CCC(=O)NC9=O)C%10=O)CC8)CC7)C6)CC5)nc4c3F)c12 (some centres unmarked) | > 7.70

input: Query pIC50 on KRAS-G12V/RAF1 (Homo sapiens (Human), UniProt P01116, G12V) for CCc1c(F)ccc2cc(O)cc(-c3ncc4c(N5CCCOC6CC65)nc(OCC5(CN6CCC(CN7CCN(c8ccc9c(c8)CN([C@H]8CCC(=O)NC8=O)C9=O)CC7)CC6)CC5)nc4c3F)c12 (some centres unmarked)
output: 6.70 to 7.70

input: Record lookup: for KRAS-G12V/RAF1 (Homo sapiens (Human), UniProt P01116, G12V), what pIC50 belongs to CCc1cccc2cc(O)cc(-c3ncc4c(N5CCC[C@@](C)(O)C5)nc(OCC5(CN6CC(CN7CC8(CCN(c9ccc%10c(c9)CN(C9CCC(=O)NC9=O)C%10=O)CC8)C7)C6)CC5)nc4c3F)c12 (some centres unmarked) ?
output: 6.70 to 7.70
